solubility thermodynamic at 72 h reference
- experiment: Thermodynamic (equilibrium) solubility of the compound measured after 3 days agitation in pH 7 buffer by LC-MS/MS analysis
- Assay type: physicochemical
- conditions: time 3 day, read-out: Therm_solubility
Give the value in µM but do not write µM after it.

molecule	unit-spec	recorded-value
COCCOCCn1nc(C)c2c1CSCc1cc(n(C)n1)CSc1cc(c3ccccc3c1)OCCCn1c(C(=O)O)c(C)c3c-2c(Cl)ccc31	µM	508

Lab note: `COc1nn(C)cc1C(=O)N[S@@]1(=O)=NC(=O)c2ccc3c(c2)N(C[C@@H]2CCO[C@H]2[C@@H](OC)/C=C/C[C@H](C)C1)C[C@@]1(CCCc2cc(Cl)ccc21)CO3` gave solubility thermodynamic at 72 h of 172

---

- Test system: MOLP-8
- experiment: Induction apoptosis in human MOLP8 cells assessed as cell killing measured after 2 hrs by Caspase-Glo 3/7 Assay
- Format: functional, cell-based
- conditions: MOLP-8, 2 h
assay-metric: AC50 (µM)
Please respond with the number in µM and leave the unit unwritten.

Worked examples, 2 compounds total:
structure-smiles	unit-spec	AC50
COC[C@H]1/C(C)=C/C[C@H](C)[C@@H](C)S(=O)(=O)NC(=O)c2ccc3c(c2)N(C[C@@H]2CCO[C@H]21)C[C@@]1(CCCc2cc(Cl)ccc21)CO3	µM	1.82
CO[C@@]1(CN2CCN3CCCC[C@@H]3C2)/C(F)=C/C[C@H](C)[C@@H](C)S(=O)(=O)NC(=O)c2ccc3c(c2)N(C[C@@H]2CCO[C@H]21)C[C@@]1(CCCc2cc(Cl)ccc21)CO3	µM	1.86

According to the records, this compound `C/C1=C\C[C@H](C)[C@@H](C)S(=O)(=O)NC(=O)c2ccc3c(c2)N(C[C@@H]2CCO[C@H]2[C@H]1CO)C[C@@]1(CCCc2cc(Cl)ccc21)CO3` displays AC50 of 0.752

Lab book: AC50 of `CO[C@@]1(CN2CCN3CCOC[C@@H]3C2)/C(F)=C/C[C@H](C)[C@@H](C)S(=O)(=O)NC(=O)c2ccc3c(c2)N(C[C@@H]2CCO[C@H]21)C[C@@]1(CCCc2cc(Cl)ccc21)CO3` noted as 0.138

// field: AC50; key: `CO[C@@]1(CN2CCN3CCOC[C@@H]3C2)/C(F)=C/C[C@H](C)[C@H](C)S(=O)(=O)NC(=O)c2ccc3c(c2)N(C[C@@H]2CCO[C@H]21)C[C@@]1(CCCc2cc(Cl)ccc21)CO3` ; value = 0.992

Value of AC50 reported for the compound `COc1nn(C)cc1C(=O)N[S@@]1(=O)=NC(=O)c2ccc3c(c2)N(C[C@@H]2CCO[C@H]2[C@@H](OC)/C=C/C[C@H](C)C1)C[C@@]1(CCCc2cc(Cl)ccc21)CO3` is 0.0761

So, `C[C@@H]1[C@@H](C)C/C=C(\F)[C@H](OCCN2CCOCC2)[C@@H]2OCC[C@H]2CN2C[C@@]3(CCCc4cc(Cl)ccc43)COc3ccc(cc32)C(=O)NS1(=O)=O` ? Its AC50 was 0.314

// AC50 value for `CO[C@]1(CN2CCN3CCOC[C@@H]3C2)/C(F)=C/C[C@H](C)[C@@H](C)S(=O)(=O)NC(=O)c2ccc3c(c2)N(C[C@@H]2CCO[C@H]21)C[C@@]1(CCCc2cc(Cl)ccc21)CO3` : 0.163

Value of measured AC50 for the entry `COc1nn(C)cc1C(=O)N[S@]1(=O)=NC(=O)c2ccc3c(c2)N(C[C@@H]2CCO[C@H]2[C@](CN2CCN4CCOC[C@@H]4C2)(OC)/C(F)=C/C[C@H](C)C1)C[C@@]1(CCCc2cc(Cl)ccc21)CO3` : 0.702

Entry `COc1nn(C)cc1C(=O)N[S@]1(=O)=NC(=O)c2ccc3c(c2)N(C[C@@H]2CCO[C@H]2[C@@H](OC)/C(F)=C/C[C@H](C)C1)C[C@@]1(CCCc2cc(Cl)ccc21)CO3` ; AC50 = 2.43

Documented AC50 of `CO[C@H]1/C(F)=C/C[C@H](C)[C@@H](C)S(=O)(=O)NC(=O)c2cnc3c(n2)N(C[C@@H]2CCO[C@H]21)C[C@@]1(CCCc2cc(Cl)ccc21)CO3` : 1.22

Record `C[C@@H]1[C@@H](C)C/C=C/[C@H](O)[C@@H]2OCC[C@H]2CN2C[C@@]3(CCCc4cc(Cl)ccc43)COc3ccc(cc32)C(=O)NS1(=O)=O` , field AC50: 0.752

The reported value for `COc1nn(C)cc1C(=O)N[S@@]1(=O)=NC(=O)c2ccc3c(c2)N(C[C@@H]2CCO[C@H]2[C@](CN2CCN4CCOC[C@@H]4C2)(OC)/C(F)=C/C[C@H](C)C1)C[C@@]1(CCCc2cc(Cl)ccc21)CO3` in terms of AC50 is 0.0286

Field AC50 (entry `COCCOCCn1nc(C)c2c1CSCc1cc(n(C)n1)CSc1cc(c3ccccc3c1)OCCCn1c(C(=O)O)c(C)c3c-2c(Cl)ccc31` ) reads 0.012

Lookup result for `Cc1c(-c2c(-c3ccc(F)o3)sc3ncnc(O[C@H](Cc4ccccc4OCc4ccnn4CC(F)(F)F)C(=O)O)c23)ccc(OCCN2CCN(C)CC2)c1Cl` ; measured AC50: 0.101

Lab book: AC50 of `Cc1c2c(nn1C)CSCc1cc(n(C)n1)CSc1cc(c3ccccc3c1)OCCCc1c(C(=O)O)n(C)c3c-2c(Cl)ccc13` noted as 0.0524

`COCCN(CCOC)C[C@]1(OC)/C(F)=C/C[C@H](C)[C@@H](C)S(=O)(=O)NC(=O)c2ccc3c(c2)N(C[C@@H]2CCO[C@H]21)C[C@@]1(CCCc2cc(Cl)ccc21)CO3` yielded AC50 of 0.412

For `CO[C@H]1/C=C/C[C@H](C)[C@@H](C)S(=O)(=O)NC(=O)c2ccc3c(c2)N(C[C@@H]2CC[C@H]21)C[C@@]1(CCCc2cc(Cl)ccc21)CO3` the compound record lists AC50 as 0.11

compound `CO[C@H]1/C=C/C[C@H](C)[C@@H](C)S(=O)(=O)NC(=O)c2ccc3c(c2)N(C[C@@H]2CCO[C@H]21)C[C@@]1(CCCc2cc(Cl)ccc21)CO3` , AC50 observed: 0.432
